- Test system: IGROV-ET
- Experiment summary: SRB colorimetric cell growth inhibition assay, IGROV-ET (ET-743 resistant)
- Type: cell-based
- Experimental setup: IGROV-ET; cell killing (cytotoxic effect); read-out: LC50 IGROV-ET
Readout kind: CC50 (µM)
# value in µM; strip the unit string

Compound: COc1cc(-c2c3c4cc(OC)c(OC(=O)[C@@H](N)Cc5ccccc5)cc4oc(=O)c3n3ccc4c(OC(=O)[C@@H](N)Cc5ccccc5)c(OC)c(OC)cc4c23)ccc1OC(=O)[C@@H](N)Cc1ccccc1 [Compound 207]
CC50 [µM]: 2.38

// next item, CC50 requested
// compound COc1cc(-c2c3c4cc(OC)c(OC(=O)[C@@H](N)Cc5ccccc5)cc4oc(=O)c3n3ccc4c(OC(=O)[C@@H](N)Cc5ccccc5)c(OC)c(OC)cc4c23)ccc1OC(=O)[C@@H](N)Cc1ccccc1 [Compound 31] , assay IGROV-ET, CC50 value: 7.62

---

- Test system: PANC-1
- Experiment summary: SRB colorimetric cell growth inhibition assay, PANC-1
- Format: cell-based
- Experimental setup: Homo sapiens, PANC-1, PANC-1; GI=growth inhibition; read-out: GI50 PANC-1
Readout kind: GI50 (nM)
A number alone suffices; assume nM.

Solved cases (2 shown):
Molecule: COc1cc(-c2c3n(c4c(=O)oc5cc(OC(=O)[C@@H](N)Cc6ccccc6)c(OC)cc5c24)CCc2cc(OC(=O)[C@@H](N)Cc4ccccc4)c(OC)cc2-3)ccc1OC(=O)[C@@H](N)Cc1ccccc1
Unit text: nM
GI50: 2470
--
Molecule: COc1cc(-c2c3n(c4c(=O)oc5cc(OC(=O)[C@H](N)C(C)C)c(OC)cc5c24)CCc2cc(OC(=O)[C@H](N)C(C)C)c(OC)cc2-3)ccc1OC(=O)[C@H](N)C(C)C
Unit text: nM
GI50: 316

Let us examine a further case.
Data point: COc1cc(-c2c3c4cc(OC)c(O)cc4oc(=O)c3n3ccc4cc(O)c(OC)cc4c23)ccc1O [Compound 3, lamellarin D, reference compound] ; GI50 = 248

---

- Tested on: IGROV-ET
- Experiment summary: SRB colorimetric cell growth inhibition assay, IGROV-ET (ET-743 resistant)
- Assay type: cell-based
- Experimental setup: human
Reported CC50 values for the following compounds.
Express the result in µM but write the number alone.

Line notation: COc1cc(-c2c3n(c4c(=O)oc5cc(OC(=O)[C@@H](N)C(C)C)c(OC)cc5c24)CCc2cc(OC(=O)[C@@H](N)C(C)C)c(OC)cc2-3)ccc1OC(=O)[C@@H](N)C(C)C
Unit text: µM
CC50: 6.33

Lab note: "COc1cc(-c2c3c4cc(OC)c(OC(=O)[C@@H](N)C(C)C)cc4oc(=O)c3n3ccc4c(OC(=O)[C@@H](N)C(C)C)c(OC)c(OC)cc4c23)ccc1OC(=O)[C@@H](N)C(C)C" gave CC50 of 6.42

---

The reader will find reported log10 of GI50 values listed item by item below.
- Test system: LoVo-Dox
- Experiment summary: SRB colorimetric cell growth inhibition assay, LoVo-Dox (MDR)
- Format: cell-based
- Experimental setup: Homo sapiens, LOVO-DOX; GI=growth inhibition; read-out: GI50 LOVO-DOX
Field: value | Transform: log10 | Quantity: GI50 | Unit: nM

Use the examples below as a reference point.
Line notation: COc1cc(-c2c3n(c4c(=O)oc5cc(OC(=O)[C@H](C)N)c(OC)cc5c24)CCc2c-3cc(OC)c(OC)c2OC(=O)[C@H](C)N)ccc1OC(=O)[C@H](C)N
Readout kind: log10 of GI50
Observed: 2.75
--
Line notation: COc1cc(-c2c3c4cc(OC)c(O)cc4oc(=O)c3n3ccc4cc(OC)c(OC)cc4c23)ccc1O
Readout kind: log10 of GI50
Observed: 2.94
--
Line notation: COc1cc(-c2c3c4cc(OC)c(O)cc4oc(=O)c3n3ccc4c(N)cccc4c23)ccc1O
Readout kind: log10 of GI50
Observed: 3.08
--
Line notation: COc1cc(-c2c3n(c4c(=O)oc5cc(O)c(OC)cc5c24)CCc2c-3cc(OC)c(OC)c2O)ccc1O
Readout kind: log10 of GI50
Observed: 2.90
--
Line notation: COc1cc(-c2c3c4cc(OC)c(OC(=O)C[C@H](N)C(C)C)cc4oc(=O)c3n3ccc4cc(OC(=O)C[C@H](N)C(C)C)c(OC)cc4c23)ccc1OC(=O)C[C@H](N)C(C)C
Readout kind: log10 of GI50
Observed: 2.47

// sample "COc1cc(-c2c3n(c4c(=O)oc5cc(OC(=O)[C@@H](N)Cc6c[nH]c7ccccc67)c(OC)cc5c24)CCc2cc(OC(=O)[C@@H](N)Cc4c[nH]c5ccccc45)c(OC)cc2-3)ccc1OC(=O)[C@@H](N)Cc1c[nH]c2ccccc12" , its log10 of GI50 was 2.95

Please fill in: log10 of GI50 reported for "COc1cc(-c2c3c4cc(OC)c(OC(=O)[C@@H]5CCCN5)cc4oc(=O)c3n3ccc4cc(OC(=O)[C@@H]5CCCN5)c(OC)cc4c23)ccc1OC(=O)[C@@H]1CCCN1" = 2.30

log10 of GI50 for "CC[C@H](C)[C@H](NC(=O)OC(C)(C)C)C(=O)Oc1ccc(-c2c3c4cc(OC)c(OC(=O)[C@@H](NC(=O)OC(C)(C)C)[C@@H](C)CC)cc4oc(=O)c3n3ccc4cc(OC(=O)[C@@H](NC(=O)OC(C)(C)C)[C@@H](C)CC)c(OC)cc4c23)cc1OC" is 3.94

// field: log10 of GI50; key: "COc1cc(-c2c3n(c4c(=O)oc5cc(OC(=O)[C@@H]6CCCN6)c(OC)cc5c24)CCc2c-3cc(OC)c(OC)c2OC(=O)[C@@H]2CCCN2)ccc1OC(=O)[C@@H]1CCCN1" ; value = 2.65

Sure, the documented log10 of GI50 for "COc1cc(-c2c3c4cc(OC)c(OC(=O)[C@@H]5CCCN5)cc4oc(=O)c3n3ccc4c(OC(=O)[C@@H]5CCCN5)c(OC)c(OC)cc4c23)ccc1OC(=O)[C@@H]1CCCN1" is 2.83

Just so you know, measured log10 of GI50 for "COc1cc(-c2c3c4cc(OC)c(OC(=O)[C@@H](N)CC(C)C)cc4oc(=O)c3n3ccc4cc(OC(=O)[C@@H](N)CC(C)C)c(OC)cc4c23)ccc1OC(=O)[C@@H](N)CC(C)C" came out at 1.98

Kindly note the recorded log10 of GI50 for "COc1cc(-c2c3n(c4c(=O)oc5cc(OC(=O)[C@H](C)N)c(OC)cc5c24)CCc2cc(OC(=O)[C@H](C)N)c(OC)cc2-3)ccc1OC(=O)[C@H](C)N" , which is 2.60

Reported log10 of GI50 ( "COc1cc(-c2c3n(c4c(=O)oc5cc(OC(=O)[C@H](NC(=O)OC(C)(C)C)C(C)C)c(OC)cc5c24)CCc2cc(OC(=O)[C@H](NC(=O)OC(C)(C)C)C(C)C)c(OC)cc2-3)ccc1OC(=O)[C@H](NC(=O)OC(C)(C)C)C(C)C" ) = 3.96

---

The compounds listed here are annotated with their CC50.
- Tested on: K-562
- Experiment summary: SRB colorimetric cell growth inhibition assay, K-562
- Type: cell-based
- Experimental setup: Homo sapiens, K562, K-562; cell killing (cytotoxic effect); read-out: LC50 K-562
Numeric answer only, unit µM assumed.

See these solved cases before continuing.
Line notation: COc1cc(-c2c3c4cc(OC)c(OC(=O)[C@@H]5CCCN5)cc4oc(=O)c3n3ccc4cc(OC(=O)[C@@H]5CCCN5)c(OC)cc4c23)ccc1OC(=O)[C@@H]1CCCN1
Experimental target: K-562
Readout kind: CC50
Observed: 11.1
//
Line notation: COc1cc(-c2c3n(c4c(=O)oc5cc(OC(=O)c6cc(F)c(F)c(F)c6F)c(OC)cc5c24)CCc2c-3cc(OC)c(OC)c2OC(=O)c2cc(F)c(F)c(F)c2F)ccc1OC(=O)c1cc(F)c(F)c(F)c1F
Experimental target: K-562
Readout kind: CC50
Observed: 2.26

Per the records, this compound ( "COc1cc(-c2c3c4cc(OC)c(OC(=O)CCCCCN)cc4oc(=O)c3n3ccc4c(OC(=O)CCCCCN)c(OC)c(OC)cc4c23)ccc1OC(=O)CCCCCN" ) has CC50 equal to 3.91

Measured CC50, "COc1cc(-c2c3c4cc(OC)c(O)cc4oc(=O)c3n3ccc4c(N)cccc4c23)ccc1O" : 21.3

Reported CC50 for "COc1cc2c(cc1OC)-c1c(-c3ccc(OC(=O)CCc4ccccc4)c(OC)c3)c3c4cc(OC)c(OC(=O)CCc5ccccc5)cc4oc(=O)c3n1CC2" was 4.36

CC50 reading for "COc1cc2ccn3c(c(-c4ccc(OS(=O)(=O)C(F)(F)F)c(OC)c4)c4c5cc(OC)c(OS(=O)(=O)C(F)(F)F)cc5oc(=O)c43)c2cc1OC" : 8.69

"COc1cc(-c2c3c4cc(OC)c(OC(=O)[C@@H](N)Cc5ccccc5)cc4oc(=O)c3n3ccc4cc(OC(=O)[C@@H](N)Cc5ccccc5)c(OC)cc4c23)ccc1OC(=O)[C@@H](N)Cc1ccccc1" yielded CC50 of 0.596

The compound listed as "COc1cc(-c2c3c4cc(OC)c(O)cc4oc(=O)c3n3ccc4cc(OC)c(OC)cc4c23)ccc1O" has a reported CC50 of 16.1

The compound identified as "COc1cc2c(cc1O)CCn1c-2cc2c3cc(OC)c(O)cc3oc(=O)c21" registered its CC50 at 1.5

Record summary for "COc1cc(-c2c3n(c4c(=O)oc5cc(OC(=O)[C@@H]6CCCN6)c(OC)cc5c24)CCc2c-3cc(OC)c(OC)c2OC(=O)[C@@H]2CCCN2)ccc1OC(=O)[C@@H]1CCCN1" : reported CC50 = 6.57

// CC50 value for "COc1cc(-c2c3c4cc(OC)c(OC(=O)CCc5ccccc5)cc4oc(=O)c3n3ccc4cc(OC(=O)CCc5ccccc5)c(OC)cc4c23)ccc1OC(=O)CCc1ccccc1" : 7.49

So, "COc1cc(-c2c3c4cc(OC)c(OC(=O)[C@@H](N)CC(C)C)cc4oc(=O)c3n3ccc4cc(OC(=O)[C@@H](N)CC(C)C)c(OC)cc4c23)ccc1OC(=O)[C@@H](N)CC(C)C" ? Its CC50 was 7.14

GET /value?item= "COc1cc(-c2c3c4cc(OC)c(OC(=O)[C@@H](N)Cc5ccccc5)cc4oc(=O)c3n3ccc4c(OC(=O)[C@@H](N)Cc5ccccc5)c(OC)c(OC)cc4c23)ccc1OC(=O)[C@@H](N)Cc1ccccc1" &field=CC50 returns 9.26
